target: human melanocortin-4 receptor (recombinant hMC4-R) (human, UniProt P32245 1-332); test: cell-based or functional assay
Sequence (P32245 whole entry): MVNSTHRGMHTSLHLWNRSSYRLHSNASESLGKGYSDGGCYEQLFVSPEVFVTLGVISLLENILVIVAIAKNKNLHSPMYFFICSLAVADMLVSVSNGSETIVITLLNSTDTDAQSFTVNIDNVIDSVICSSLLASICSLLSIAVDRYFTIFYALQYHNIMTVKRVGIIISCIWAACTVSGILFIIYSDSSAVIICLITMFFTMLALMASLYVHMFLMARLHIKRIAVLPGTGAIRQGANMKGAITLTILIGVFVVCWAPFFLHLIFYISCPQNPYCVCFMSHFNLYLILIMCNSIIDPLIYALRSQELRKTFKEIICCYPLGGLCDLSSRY
Bridge positions count the residues as written; N and C are the ends. Square brackets hold non-standard residues; d marks the D form. Nle = CCCC[C@H](N)C(=O)O; Orn = NCCC[C@H](N)C(=O)O
measure-name: Emax (%), cAMP
Write the number in % without appending the unit.

Below, each entry is followed by its recorded Emax (%), cAMP result.
binder	measure-name	val
Ac-K[Orn]H[dF]RWE-NH2 (lactam 2-7) [Peptide No. 40: Ac-Lys-cyclo(Orn-His-D-Phe-Arg-Trp-Glu)-NH2]	Emax (%), cAMP	114
Ac-[dR]DH[dF]RWK-NH2 (lactam 2-7) [Asp...Lys analog of peptide No. 39: Ac-D-Arg-cyclo(Asp-His-D-Phe-Arg-Trp-Lys)-NH2]	Emax (%), cAMP	89
Ac-[dR]DQ[dF]RWK-NH2 (lactam 2-7, also called Peptide Structure (Asp...Lys) in the row of No. 45) [Asp...Lys analog of peptide No. 45: Ac-D-Arg-cyclo(Asp-Gln-D-Phe-Arg-Trp-Lys)-NH2]	Emax (%), cAMP	89
Ac-RDP[dF]RWK-NH2 (lactam 2-7, also called Peptide Structure (Asp...Lys) in the row of No. 47) [Asp...Lys analog of peptide No. 47: Ac-Arg-cyclo(Asp-Pro-D-Phe-Arg-Trp-Lys)-NH2]	Emax (%), cAMP	43
Ac-[dR][Orn]Q[dF]RWE-NH2 (lactam 2-7) [Peptide No. 45: Ac-D-Arg-cyclo(Orn-Gln-D-Phe-Arg-Trp-Glu)-NH2]	Emax (%), cAMP	89
Ac-[Nle][Orn]H[dF]RWE-OH (lactam 2-7) [Peptide No. 35: Ac-Nle-cyclo(Orn-His-D-Phe-Arg-Trp-Glu)-OH]	Emax (%), cAMP	97
Ac-RDA[dF]RWK-NH2 (lactam 2-7, also called Peptide Structure (Asp...Lys) in the row of No. 41) [Asp...Lys analog of peptide No. 41: Ac-Arg-cyclo(Asp-Ala-D-Phe-Arg-Trp-Lys)-NH2]	Emax (%), cAMP	74
Ac-R[Orn]P[dF]RWE-NH2 (lactam 2-7) [Peptide No. 47: Ac-Arg-cyclo(Orn-Pro-D-Phe-Arg-Trp-Glu)-NH2]	Emax (%), cAMP	54
Ac-[Nle][Orn]H[dF]RWE-NH2 (lactam 2-7) [Peptide No. 36: Ac-Nle-cyclo(Orn-His-D-Phe-Arg-Trp-Glu)-NH2]	Emax (%), cAMP	85
Ac-R[Orn]A[dF]RWE-NH2 (lactam 2-7; SMILES CC(=O)N[C@@H](CCCNC(=N)N)C(=O)N[C@H]1CCCNC(=O)CC[C@@H](C(N)=O)NC(=O)[C@H](Cc2c[nH]c3ccccc23)NC(=O)[C@H](CCCNC(=N)N)NC(=O)[C@@H](Cc2ccccc2)NC(=O)[C@H](C)NC1=O) [Peptide No. 41: Ac-Arg-cyclo(Orn-Ala-D-Phe-Arg-Trp-Glu)-NH2]	Emax (%), cAMP	52

Next binder, Emax (%), cAMP to be filled in.
Requested read-out: Emax (%), cAMP. Entry: Ac-RDN[dF]RWK-NH2 (lactam 2-7; SMILES CC(=O)N[C@@H](CCCNC(=N)N)C(=O)N[C@H]1CC(=O)NCCCC[C@@H](C(N)=O)NC(=O)[C@H](Cc2c[nH]c3ccccc23)NC(=O)[C@H](CCCNC(=N)N)NC(=O)[C@@H](Cc2ccccc2)NC(=O)[C@H](CC(N)=O)NC1=O, also called Peptide Structure (Asp...Lys) in the rows of No. 34 and No. 46) [Asp...Lys analog of peptides No. 34 and No. 46: Ac-Arg-cyclo(Asp-Asn-D-Phe-Arg-Trp-Lys)-NH2] 91
